Measured kcat/Km by item
- Substrate: C=CCO[C@@H]1O[C@H](CO)[C@@H](O[C@@H]2O[C@H](CO)[C@H](O[C@H]3O[C@H](CO)[C@H](O)[C@H](O[C@@H]4O[C@H](CO)[C@H](O)[C@H](O)[C@H]4NC(C)=O)[C@H]3O)[C@H](O)[C@H]2O)[C@H](O)[C@H]1O
- Assay Method Text: UDP release, Michaelis-Menten fit
- Type: biochemical, Homo sapiens
- Test Settings: 10 mM UDP-sugar (UDP-Gal) fixed, 20 mM HEPES pH 7.4, 0.1 mM MnCl2
# number only, unit M⁻¹ s⁻¹ dropped from output

Past entries and their recorded results:
soluble β3GalT5-1 (HEK293) (Homo sapiens) (protein, soluble luminal domain N29-V310, no TM; expressed in HEK293 cells, complex-type N-glycans) NPFKEQSFVYKKDGNFLKLPDTDCRQTPPFLVLLVTSSHKQLAERMAIRQTWGKERMVKGKQLKTFFLLGTTSSAAETKEVDQESQRHGDIIQKDFLDVYYNLTLKTMMGIEWVHRFCPQAAFVMKTDSDMFINVDYLTELLLKKNRTTRFFTGFLKLNEFPIRQPFSKWFVSKSEYPWDRYPPFCSGTGYVFSGDVASQVYNVSKSVPYIKLEDVFVGLCLERLNIRLEELHSQPTFFPGGLRFSVCLFRRIVACHFIKPRTLLDYWQALENSRGEDCPPV | 32
soluble β3GalT5-1 (HEK293) (Homo sapiens; S66A) (protein, soluble luminal domain N29-V310, no TM; expressed in HEK293 cells, complex-type N-glycans) NPFKEQSFVYKKDGNFLKLPDTDCRQTPPFLVLLVTSAHKQLAERMAIRQTWGKERMVKGKQLKTFFLLGTTSSAAETKEVDQESQRHGDIIQKDFLDVYYNLTLKTMMGIEWVHRFCPQAAFVMKTDSDMFINVDYLTELLLKKNRTTRFFTGFLKLNEFPIRQPFSKWFVSKSEYPWDRYPPFCSGTGYVFSGDVASQVYNVSKSVPYIKLEDVFVGLCLERLNIRLEELHSQPTFFPGGLRFSVCLFRRIVACHFIKPRTLLDYWQALENSRGEDCPPV | 64.8

Read the next record carefully.
**Query** May I ask what kcat/Km has been recorded for soluble β3GalT5-1 (HEK293) (Homo sapiens; Q69M) (protein, soluble luminal domain N29-V310, no TM; expressed in HEK293 cells, complex-type N-glycans) NPFKEQSFVYKKDGNFLKLPDTDCRQTPPFLVLLVTSSHKMLAERMAIRQTWGKERMVKGKQLKTFFLLGTTSSAAETKEVDQESQRHGDIIQKDFLDVYYNLTLKTMMGIEWVHRFCPQAAFVMKTDSDMFINVDYLTELLLKKNRTTRFFTGFLKLNEFPIRQPFSKWFVSKSEYPWDRYPPFCSGTGYVFSGDVASQVYNVSKSVPYIKLEDVFVGLCLERLNIRLEELHSQPTFFPGGLRFSVCLFRRIVACHFIKPRTLLDYWQALENSRGEDCPPV ?
**Result** 25.3
